Target system: Stromal interaction molecule 1 & 2/Calcium release-activated calcium channel protein 1 (Homo sapiens, UniProt Q13586+Q96D31+Q9P246)
Sequence (Q13586 whole entry, one chain of several): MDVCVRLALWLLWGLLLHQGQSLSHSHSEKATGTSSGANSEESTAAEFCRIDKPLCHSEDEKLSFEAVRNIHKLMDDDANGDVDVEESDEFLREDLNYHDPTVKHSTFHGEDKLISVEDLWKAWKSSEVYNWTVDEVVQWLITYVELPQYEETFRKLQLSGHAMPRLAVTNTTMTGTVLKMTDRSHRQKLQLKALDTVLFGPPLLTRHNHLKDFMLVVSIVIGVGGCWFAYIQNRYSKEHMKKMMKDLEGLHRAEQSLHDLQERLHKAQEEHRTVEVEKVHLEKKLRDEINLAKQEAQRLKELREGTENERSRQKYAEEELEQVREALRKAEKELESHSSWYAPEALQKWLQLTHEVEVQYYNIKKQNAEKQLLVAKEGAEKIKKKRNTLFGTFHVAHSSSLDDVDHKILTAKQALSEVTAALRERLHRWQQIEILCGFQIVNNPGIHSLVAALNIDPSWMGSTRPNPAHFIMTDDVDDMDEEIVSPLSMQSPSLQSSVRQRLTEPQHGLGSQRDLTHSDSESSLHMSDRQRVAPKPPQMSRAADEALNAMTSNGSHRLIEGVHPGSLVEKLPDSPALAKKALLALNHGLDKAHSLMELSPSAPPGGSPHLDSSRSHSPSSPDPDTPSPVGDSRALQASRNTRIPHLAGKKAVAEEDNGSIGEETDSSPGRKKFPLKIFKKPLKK
Sequence (Q9P246 whole entry, one chain of several): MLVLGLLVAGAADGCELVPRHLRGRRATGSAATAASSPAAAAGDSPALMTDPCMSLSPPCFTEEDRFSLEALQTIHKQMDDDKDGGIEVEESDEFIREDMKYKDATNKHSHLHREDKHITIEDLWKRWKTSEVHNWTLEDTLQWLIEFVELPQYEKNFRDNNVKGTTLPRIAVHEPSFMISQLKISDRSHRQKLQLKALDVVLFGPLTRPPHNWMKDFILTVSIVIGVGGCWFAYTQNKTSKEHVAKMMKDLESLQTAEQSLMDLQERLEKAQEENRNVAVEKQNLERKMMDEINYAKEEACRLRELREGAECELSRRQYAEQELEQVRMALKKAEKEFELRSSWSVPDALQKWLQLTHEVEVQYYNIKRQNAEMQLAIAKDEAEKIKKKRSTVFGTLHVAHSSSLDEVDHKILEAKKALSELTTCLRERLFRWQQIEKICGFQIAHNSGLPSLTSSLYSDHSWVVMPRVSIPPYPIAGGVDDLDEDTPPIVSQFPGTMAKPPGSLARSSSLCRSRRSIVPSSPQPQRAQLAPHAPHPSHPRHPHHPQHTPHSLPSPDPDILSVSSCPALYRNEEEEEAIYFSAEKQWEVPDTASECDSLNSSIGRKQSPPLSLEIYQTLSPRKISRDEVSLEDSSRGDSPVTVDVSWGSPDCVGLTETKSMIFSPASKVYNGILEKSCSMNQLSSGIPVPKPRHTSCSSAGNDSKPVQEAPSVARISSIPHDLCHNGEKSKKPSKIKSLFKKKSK
Test description: Inhibition of STIM1/STIM2/Orai1 (unknown origin) expressed in mouse BV2 cells assessed as induction of store-operated calcium entry by measuring residual activity preincubated for 30 mins followed by tBhQ, mediated Ca2+ depletion and re-addition measured for 600 secs by Fluo-4 AM-based fluorometric assay
Metric name: IC50

{"Given smiles": "CCOC(=O)c1cnn(-c2ccc(-n3cc(-c4cccc(C(=O)O)c4)nn3)cc2)c1C(F)(F)F", "Metric name": "IC50", "Value measured": "4.9 µM"}

---

Target system: Short transient receptor potential channel 1 & 3/Stromal interaction molecule 1/Calcium release-activated calcium channel protein 1 (Homo sapiens) (UniProt Q96D31+Q13507+Q13586+P48995)
Sequence (P48995 whole entry partner): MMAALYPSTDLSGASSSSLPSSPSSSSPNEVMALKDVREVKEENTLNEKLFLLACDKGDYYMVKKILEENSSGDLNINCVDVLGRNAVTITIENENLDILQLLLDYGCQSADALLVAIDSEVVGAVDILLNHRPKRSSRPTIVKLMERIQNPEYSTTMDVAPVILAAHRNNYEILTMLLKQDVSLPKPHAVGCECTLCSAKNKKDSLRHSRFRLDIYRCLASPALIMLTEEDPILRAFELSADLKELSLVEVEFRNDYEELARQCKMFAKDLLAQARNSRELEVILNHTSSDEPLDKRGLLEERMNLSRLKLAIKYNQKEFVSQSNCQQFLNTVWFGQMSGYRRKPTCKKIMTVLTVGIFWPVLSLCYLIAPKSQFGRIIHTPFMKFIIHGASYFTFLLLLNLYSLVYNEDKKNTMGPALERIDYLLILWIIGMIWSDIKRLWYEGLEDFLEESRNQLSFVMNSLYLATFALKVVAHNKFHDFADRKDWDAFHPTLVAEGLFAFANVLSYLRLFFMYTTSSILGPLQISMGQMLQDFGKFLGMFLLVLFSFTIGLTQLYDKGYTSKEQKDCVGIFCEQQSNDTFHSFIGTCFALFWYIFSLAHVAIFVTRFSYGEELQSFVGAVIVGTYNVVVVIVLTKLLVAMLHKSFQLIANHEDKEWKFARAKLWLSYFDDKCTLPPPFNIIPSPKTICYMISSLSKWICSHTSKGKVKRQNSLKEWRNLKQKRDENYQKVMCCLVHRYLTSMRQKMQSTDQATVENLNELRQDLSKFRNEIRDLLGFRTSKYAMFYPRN
Sequence (Q13507 whole entry partner): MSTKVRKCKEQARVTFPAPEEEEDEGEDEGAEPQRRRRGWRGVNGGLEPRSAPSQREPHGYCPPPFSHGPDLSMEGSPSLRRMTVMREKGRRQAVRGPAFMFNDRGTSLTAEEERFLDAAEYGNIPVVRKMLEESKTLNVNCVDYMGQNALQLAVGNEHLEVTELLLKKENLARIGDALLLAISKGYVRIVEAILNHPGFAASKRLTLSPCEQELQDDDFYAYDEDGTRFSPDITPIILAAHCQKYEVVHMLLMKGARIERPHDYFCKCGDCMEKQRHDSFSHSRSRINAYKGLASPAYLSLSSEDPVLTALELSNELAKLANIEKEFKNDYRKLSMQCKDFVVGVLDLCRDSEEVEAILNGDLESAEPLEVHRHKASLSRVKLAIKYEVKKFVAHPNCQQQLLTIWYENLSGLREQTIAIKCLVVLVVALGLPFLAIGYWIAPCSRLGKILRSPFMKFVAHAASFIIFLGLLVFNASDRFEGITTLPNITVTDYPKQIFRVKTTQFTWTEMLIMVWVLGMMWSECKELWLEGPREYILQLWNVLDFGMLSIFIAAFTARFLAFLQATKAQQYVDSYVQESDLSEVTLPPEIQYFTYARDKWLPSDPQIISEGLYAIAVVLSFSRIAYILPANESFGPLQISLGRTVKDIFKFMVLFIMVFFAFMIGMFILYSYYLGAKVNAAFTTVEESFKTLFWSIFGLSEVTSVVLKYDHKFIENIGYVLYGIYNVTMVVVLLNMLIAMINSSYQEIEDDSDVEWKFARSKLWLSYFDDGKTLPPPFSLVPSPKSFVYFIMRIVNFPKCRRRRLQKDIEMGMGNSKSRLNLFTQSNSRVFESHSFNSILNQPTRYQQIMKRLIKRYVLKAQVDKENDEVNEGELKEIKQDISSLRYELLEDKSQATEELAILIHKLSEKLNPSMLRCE
Sequence (Q13586 23-685 partner limits assumed): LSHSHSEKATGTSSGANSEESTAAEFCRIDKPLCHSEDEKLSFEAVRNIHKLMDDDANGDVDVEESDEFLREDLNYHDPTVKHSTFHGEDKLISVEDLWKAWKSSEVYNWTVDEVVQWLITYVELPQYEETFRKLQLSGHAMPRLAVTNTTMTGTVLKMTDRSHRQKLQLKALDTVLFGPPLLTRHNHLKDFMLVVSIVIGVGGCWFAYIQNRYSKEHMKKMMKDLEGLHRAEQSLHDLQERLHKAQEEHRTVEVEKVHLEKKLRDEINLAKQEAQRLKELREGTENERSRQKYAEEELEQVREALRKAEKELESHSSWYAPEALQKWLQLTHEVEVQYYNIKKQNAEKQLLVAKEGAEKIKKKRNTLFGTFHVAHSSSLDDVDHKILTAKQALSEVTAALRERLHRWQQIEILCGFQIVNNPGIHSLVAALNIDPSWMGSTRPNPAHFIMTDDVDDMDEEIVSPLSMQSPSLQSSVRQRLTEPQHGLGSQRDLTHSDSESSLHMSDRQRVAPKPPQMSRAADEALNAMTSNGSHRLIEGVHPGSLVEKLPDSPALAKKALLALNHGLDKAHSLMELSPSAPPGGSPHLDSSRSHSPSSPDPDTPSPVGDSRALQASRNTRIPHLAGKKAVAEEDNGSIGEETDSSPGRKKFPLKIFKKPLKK
Sequence (Q96D31 whole entry): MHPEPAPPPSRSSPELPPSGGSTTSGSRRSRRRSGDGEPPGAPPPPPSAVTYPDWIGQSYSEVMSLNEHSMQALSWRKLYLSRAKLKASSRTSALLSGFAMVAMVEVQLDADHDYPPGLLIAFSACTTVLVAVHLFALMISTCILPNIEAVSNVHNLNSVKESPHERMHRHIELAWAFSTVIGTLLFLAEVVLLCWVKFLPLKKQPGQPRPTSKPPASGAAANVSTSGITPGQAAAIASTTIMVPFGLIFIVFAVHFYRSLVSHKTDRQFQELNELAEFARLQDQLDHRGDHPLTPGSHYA
Test description: Modulation of TRPC1/TRPC3/STIM1/Orai1 in HEK cells assessed as induction of store-operated calcium entry by measuring residual activity at 10 uM preincubated for 30 mins followed by tBhQ-mediated Ca2+ depletion and Ca2+ re-addition to extracellular solution measured for 600 secs by Fluo-4 AM-based fluorometric assay relative to control
Format: cell-based

{"Given smiles": "O=C(Nc1ccc(-n2nc(C(F)(F)F)cc2C(F)(F)F)cc1)c1ccncc1F", "Unit text": "%", "Comparison operator": "=", "Activity": 10.3}
{"Given smiles": "CCOC(=O)c1cnn(-c2ccc(-n3cc(-c4cccc(C(=O)OC)c4)nn3)cc2)c1C(F)(F)F", "Unit text": "%", "Comparison operator": ">", "Activity": 90}
{"Given smiles": "CCOC(=O)c1cnn(-c2ccc(-n3cc(-c4cccc(N)c4)nn3)cc2)c1C(F)(F)F", "Unit text": "%", "Comparison operator": "=", "Activity": 81.7}
{"Given smiles": "CCOC(=O)c1cnn(-c2ccc(-c3cn(-c4ccc(C(=O)O)cc4)nn3)cc2)c1C(F)(F)F", "Unit text": "%", "Comparison operator": "=", "Activity": 69.3}
{"Given smiles": "O=C(O)c1cccc(-c2cn(-c3ccc(-n4ncc(C(=O)OCc5ccccc5)c4C(F)(F)F)cc3)nn2)c1", "Unit text": "%", "Comparison operator": "=", "Activity": 10.5}
{"Given smiles": "CC(C)=CCC/C(C)=C/COC(=O)c1cnn(-c2ccc(-n3cc(-c4cccc(C(=O)O)c4)nn3)cc2)c1C(F)(F)F", "Unit text": "%", "Comparison operator": ">", "Activity": 90}
{"Given smiles": "CCOC(=O)c1cnn(-c2ccc(-c3cn(-c4ccc(Cl)cc4)nn3)cc2)c1C(F)(F)F", "Unit text": "%", "Comparison operator": "=", "Activity": 142}
{"Given smiles": "CCOC(=O)c1cnn(-c2ccc(-n3cc(-c4ccc(C(=O)O)cc4)nn3)cc2)c1C(F)(F)F", "Unit text": "%", "Comparison operator": "=", "Activity": 52.1}

---

Test description: Half life in ip dosed CD1 mouse by LC-ESI-MS analysis
Format: ADME, organism-based
Protocol conditions: in vivo
Metric name: half-life (h)

{"Compound": "CCCC(C)OC(=O)c1cnn(-c2ccc(-n3cc(-c4cccc(C(=O)O)c4)nn3)cc2)c1C(F)(F)F (stereo unspecified)", "Metric name": "half-life", "Unit text": "h", "Value measured": 1.3}

---

Target system: Stromal interaction molecule 1 & 2/Calcium release-activated calcium channel protein 1 (Mus musculus) (UniProt Q8BWG9+P70302+P83093)
Test description: Modulation of STIM1/STIM2/Orai1 in mouse BV2 cells assessed as induction of store-operated calcium entry by measuring residual activity at 10 uM preincubated for 30 mins followed by tBhQ-mediated Ca2+ depletion and Ca2+ re-addition to extracellular solution measured for 600 secs by Fluo-4 AM-based fluorometric assay relative to control
Type: cell-based
Assign fulfilled to entries whose Activity meets or exceeds 90%; assign not fulfilled to the rest.

{"Given smiles": "Oc1cccc(-n2cc(-c3ccc(-n4nc(C(F)(F)F)cc4C(F)(F)F)cc3)nn2)c1", "Class label": "fulfilled"}
{"Given smiles": "CCOC(=O)c1cnn(-c2ccc(-c3cn(CCCC(=O)O)nn3)cc2)c1C(F)(F)F", "Class label": "not fulfilled"}
{"Given smiles": "CC(=O)Nc1ccc(-c2cn(-c3ccc(-n4nc(C(F)(F)F)cc4C(F)(F)F)cc3)nn2)cc1", "Class label": "fulfilled"}
{"Given smiles": "CCOC(=O)c1cnn(-c2ccc(-n3cc(-c4ccc(C(=O)O)cc4)nn3)cc2)c1C(F)(F)F", "Class label": "not fulfilled"}

Hey, just so you know, these numbers are from ChEMBL document CHEMBL4152384.
